- EXPERIMENT: First-in-man PK: compound (1) plasma levels after single oral ascending dose of compound (2)
- Format: in vivo, human
- CONDITION_DETAILS: male, human, plasma, po, 100 mg, 100 mg compound (2) single oral, N=6; read-out: t1/2, Mean (converted)
PARAMETER_MEASURED: half-life (h)

>  <LINE_NOTATION>
O=C(O)[C@H]1O[C@@H](N(c2ccc(OC(F)(F)F)cc2)c2ccc3cccc(Cl)c3n2)[C@H](O)[C@@H](O)[C@@H]1O

>  <ENDPOINT_VALUE>
111

$$$$

---

- EXPERIMENT: First-in-man PK: compound (1) plasma levels after single oral ascending dose of compound (2)
- Assay type: in vivo, human
- CONDITION_DETAILS: male, human, plasma, po, 100 mg, 100 mg compound (2) single oral, N=6; read-out: AUC0-∞, GM (geometric mean)
PARAMETER_MEASURED: AUC(0-inf) (µg·h/mL)

>  <COMPOUND>
O=C(O)[C@H]1O[C@@H](N(c2ccc(OC(F)(F)F)cc2)c2ccc3cccc(Cl)c3n2)[C@H](O)[C@@H](O)[C@@H]1O [Compound 1]

>  <UOM>
µg·h/mL

>  <ENDPOINT_VALUE>
476

$$$$

---

- EXPERIMENT: First-in-man PK: compound (1) plasma levels after single oral ascending dose of compound (2)
- Type: in vivo, human
- CONDITION_DETAILS: male, human, plasma, po, 150 mg, 150 mg compound (2) single oral, N=6; read-out: AUC0-∞, GM (geometric mean)
PARAMETER_MEASURED: AUC(0-inf) (µg·h/mL)

>  <COMPOUND>
O=C(O)[C@H]1O[C@@H](N(c2ccc(OC(F)(F)F)cc2)c2ccc3cccc(Cl)c3n2)[C@H](O)[C@@H](O)[C@@H]1O [Compound 1]

>  <ENDPOINT_VALUE>
563

$$$$

---

- EXPERIMENT: First-in-man PK: compound (1) plasma levels after single oral ascending dose of compound (2)
- Format: in vivo, human
- CONDITION_DETAILS: male, human, plasma, po, 100 mg, 100 mg compound (2) single oral, N=6; read-out: AUC0-t, Mean
- Procedure: The present document details the pharmacokinetic (PK) results obtained in a first-in-man study with compound (2) consisting in a single oral ascending dose in healthy male subjects. Four (4) dose levels were investigated (50, 100, 150, and 200 mg). […] In this study, plasma levels of compound (1) were measured. […] Cmax The observed maximum concentration measured in plasma was obtained directly from the concentration-time data. […]

>  <LINE_NOTATION>
O=C(O)[C@H]1O[C@@H](N(c2ccc(OC(F)(F)F)cc2)c2ccc3cccc(Cl)c3n2)[C@H](O)[C@@H](O)[C@@H]1O

>  <AUC(0-t)>
499 µg·h/mL

$$$$

---

- EXPERIMENT: First-in-man PK: compound (1) plasma levels after single oral ascending dose of compound (2)
- Type: in vivo, human
- CONDITION_DETAILS: male, human, plasma, po, 50 mg, 50 mg compound (2) single oral, N=6; read-out: Cmax, GM (geometric mean)

>  <LINE_NOTATION>
O=C(O)[C@H]1O[C@@H](N(c2ccc(OC(F)(F)F)cc2)c2ccc3cccc(Cl)c3n2)[C@H](O)[C@@H](O)[C@@H]1O

>  <Cmax [ng/mL]>
2540

$$$$

---

- EXPERIMENT: First-in-man PK: compound (1) plasma levels after single oral ascending dose of compound (2)
- Assay type: in vivo, human
- CONDITION_DETAILS: male, human, plasma; 100 mg compound (2) single oral, N=6; read-out: tmax, median

>  <COMPOUND>
O=C(O)[C@H]1O[C@@H](N(c2ccc(OC(F)(F)F)cc2)c2ccc3cccc(Cl)c3n2)[C@H](O)[C@@H](O)[C@@H]1O [Compound 1]

>  <Tmax>
4 h

$$$$

---

- EXPERIMENT: First-in-man PK: compound (1) plasma levels after single oral ascending dose of compound (2)
- Type: in vivo, human
- CONDITION_DETAILS: male, human, plasma, po, 150 mg, 150 mg compound (2) single oral, N=6; read-out: t1/2, Mean (converted)
PARAMETER_MEASURED: half-life (h)

>  <LINE_NOTATION>
O=C(O)[C@H]1O[C@@H](N(c2ccc(OC(F)(F)F)cc2)c2ccc3cccc(Cl)c3n2)[C@H](O)[C@@H](O)[C@@H]1O

>  <UOM>
h

>  <ENDPOINT_VALUE>
99.2

$$$$

---

- EXPERIMENT: First-in-man PK: compound (1) plasma levels after single oral ascending dose of compound (2)
- Type: in vivo, human
- CONDITION_DETAILS: male, human, plasma; 50 mg compound (2) single oral, N=6; read-out: tmax, median

>  <MOLECULE>
O=C(O)[C@H]1O[C@@H](N(c2ccc(OC(F)(F)F)cc2)c2ccc3cccc(Cl)c3n2)[C@H](O)[C@@H](O)[C@@H]1O [Compound 1]

>  <UOM>
h

>  <Tmax>
4

$$$$
